Target: human KHK-A (Homo sapiens (Human))
Assay: KHK Biochemical Assay (IC50), ADP-Glo, KHK-A
Conditions: ADP-Glo; average of at least two separate assays
pIC50: −log10 of the molar value.
MEASUREMENT_NAME: pIC50

1. C[C@H]1CCN1c1nc2c(c(-c3ccc4[nH]c(C(N)=O)cc4c3)n1)CCC2 ... 6.82
2. C[C@H]1CCN1c1nc2c(c(-c3cscn3)n1)CCC2 ... 6.83

====

Biological target: human KHK-A (Homo sapiens (Human), UniProt P50053)
Sequence (P50053 other isoform, or with tags, fused parts or gaps): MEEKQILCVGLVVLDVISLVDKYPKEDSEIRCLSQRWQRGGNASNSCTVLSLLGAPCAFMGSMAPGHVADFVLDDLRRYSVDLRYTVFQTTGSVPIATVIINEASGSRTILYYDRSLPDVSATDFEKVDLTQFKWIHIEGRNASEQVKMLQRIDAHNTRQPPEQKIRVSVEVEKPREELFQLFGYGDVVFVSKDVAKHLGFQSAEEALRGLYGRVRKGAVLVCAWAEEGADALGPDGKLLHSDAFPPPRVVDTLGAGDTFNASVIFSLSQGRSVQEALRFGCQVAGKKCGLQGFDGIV
Experiment: KHK Biochemical Assay (IC50), ADP-Glo, KHK-A
Conditions: ADP-Glo; average of at least two separate assays
MEASUREMENT_NAME: IC50 (nM)

1) CCC1Oc2cc(-c3nc(N4CC[C@@H]4C)nc4c3CCC4)ccc2C1NS(C)(=O)=O (stereo partly drawn) ... 96.2

[a] Cc1cc(-c2nc(N3CC[C@@H]3C)nc3c2CCC3)cc2c1C(NS(C)(=O)=O)CO2 (stereo partly drawn)
[b] C[C@H]1CCN1c1nc2c(c(-c3cccc(C(=O)N[C@H]4CC[C@H]4O)c3)n1)CCC2 (racemic)
Among a and b , whose measured IC50 is the smaller figure? Identify your selection by its label.
b
